Kindly supply the reported cell viability values for the records listed here.
- Tested on: NOMO1
- METHOD: cell viability relative to DMSO control; higher = less cytotoxic
- TEST_PARAMETERS: RPMI 5 mM glucose + 10% FBS; 48 h; 0.19 µM
Answers are plain numbers, in %.

Below, each entry is followed by its recorded cell viability result.
COc1cnc(N[S+](=O)([O-])c2ccc(N)cc2)nc1 :: 131
COc1cc2nc(N(C)CCCNC(=O)C3CCCO3)nc(N)c2cc1OC (stereo not drawn) :: 81.8
COc1nccc(-c2c(-c3ccc(F)cc3)ncn2C2CCNCC2)n1 :: 107
Cc1c(CN2CCN(C(=O)[C@H](C)O)CC2)sc2c(N3CCOCC3)nc(-c3cnc(N)nc3)nc12 :: 86.9
Cn1c(=O)c2c(ncn2C)n(C)c1=O.O=C(O)CC(O)(CC(=O)O)C(=O)O :: 104
C=C(C)[C@@H]1CC[C@]2(C(=O)O)CC[C@]3(C)[C@H](CC[C@@H]4[C@@]5(C)CC[C@H](O)C(C)(C)[C@@H]5CC[C@]43C)[C@@H]12 :: 111
COC1=C(N2CCNC(C)C2)C(=CC3=C1N(\C=C(C(O)=O)/C3=O)C4CC4)F (stereo not drawn) :: 96.8
FC(F)(F)c1ccc(/C=C/c2nc(COc3ccc(CCCCn4ccnn4)cc3)co2)cc1 :: 127

// each listed compound needs a value for cell viability
1. Cc1cc(CN2CCN(c3c(Br)cnc4[nH]c(-c5ccc(N6CCN(C)CC6)cc5)nc34)CC2)no1
2. C[C@](O)(COc1ccc(C#N)cc1)C(=O)Nc1ccc(C#N)c(C(F)(F)F)c1
3. CO[C@H]1/C=C/O[C@@]2(C)Oc3c(C)c(O)c4c(O)c(c5c(nc6cc(C)ccn65)c4c3C2=O)NC(=O)/C(C)=C\C=C\[C@H](C)[C@H](O)[C@@H](C)[C@@H](O)[C@@H](C)[C@H](OC(C)=O)[C@@H]1C
4. Cl.Cl.Cl.O[C@@H](COc1cccc2ncccc12)CN1CCN([C@@H]2c3ccccc3[C@@H]3[C@H](c4ccccc42)C3(F)F)CC1
5. CC(=O)Oc1ccccc1C(=O)O

result:
[117, 95.3, 105, 84.5, 87.4]

* * *

Kindly supply the reported cell viability values for the records listed here.
- System: NOMO1
- METHOD: cell viability relative to DMSO control; higher = less cytotoxic
- TEST_PARAMETERS: HPLM + 10% dialyzed FBS; 48 h; 0.19 µM
Numbers only, in %.

CCC1(C)CC(=O)NC1=O (stereo not given) :: 111

// each listed molecule needs a value for cell viability
1. Cc1ccccc1C(C(=O)NC1CCCCC1)N(C(=O)Cn1ccnc1C)c1cccc(F)c1 (stereo not given)
2. Nc1ccccc1NC(=O)c1ccc(CNC(=O)OCc2cccnc2)cc1
3. Cc1ccc(NC(=O)c2ccc(CN3CCN(C)CC3)cc2)cc1Nc1nc(-c2cccnc2)cs1
4. CN[S+](=O)([O-])Cc1ccc2[nH]cc(CCN(C)C)c2c1

result:
1. 111
2. 110
3. 89.3
4. 130

* * *

- System: P12-Ichikawa
- METHOD: cell viability relative to DMSO control; higher = less cytotoxic
- TEST_PARAMETERS: RPMI 5 mM glucose + 10% FBS; 48 h; 0.19 µM
PARAMETER_MEASURED: cell viability
Please answer using a numeric value trailed by its unit.

Below, each entry is followed by its recorded cell viability result.
CN1[C@@H]2CC(OC(=O)[C@@H](CO)c3ccccc3)C[C@H]1[C@H]1O[C@H]12 (some centres undefined) :: 105%
CC[C@H](CC[C@@H](C)[C@H]1CC[C@H]2[C@@H]3C\C=C/4C[C@@H](O)CC[C@]4(C)[C@H]3CC[C@]12C)C(C)C :: 118%
Cc1c(CCOc2ccc(C(=O)O)cc2)c2cc(Cl)ccc2n1C(c1ccccc1)c1ccccc1 :: 108%
CCC(C)SSc1ncc[nH]1 (centres undefined) :: 95%
CN[S+](=O)([O-])Cc1ccc2[nH]cc(CCN(C)C)c2c1 :: 119%
Cc1ccc(NC(=O)c2ccc(CN3CCN(C)CC3)cc2)cc1Nc1nc(-c2cccnc2)cs1 :: 111%

// each listed molecule needs a value for cell viability
1. CC1CCC(C(=O)N(c2cc(C#CC(C)(C)C)sc2C(=O)O)C2CCC(O)CC2)CC1 (centres undefined)
2. CCc1cncnc1N1CCN(Cc2nc3cc(C(F)(F)F)ccc3[nH]2)CC1
3. NC1(Cc2ccc(Cl)cc2)CCN(c2ncnc3[nH]ccc23)CC1

result:
1. 87%
2. 88.8%
3. 97.8%

// each listed molecule needs a value for cell viability
1. C#Cc1cccc(Nc2ncnc3cc(OCCOC)c(OCCOC)cc23)c1
2. COc1cccc2cc(-c3nc(C4CCC(C(=O)O)CC4)n4ncnc(N)c34)[nH]c12 (centres undefined)
3. CC(=O)N(C)c1cccc(-c2ccnc3c(C(=O)c4cccs4)cnn23)c1
4. C[C@@H](NC1=CC=CC=C1C(O)=O)C/2=C/C(=C\N3C(=O)/C=C(\N=C23)N4CCOCC4)C
5. COc1ccc(-c2cc3nccn3c(Nc3ncccc3C(N)=O)n2)cc1OC
6. [NH2][Pt]1([NH2])[O]CC(=O)[O]1
7. CN(C)CCOc1cc(-c2cn[nH]c2)ccc1NC(=O)C1COc2ccccc2O1 (centres undefined)

result:
["92%", "91.4%", "101%", "84.7%", "109%", "99.2%", "118%"]

// each listed molecule needs a value for cell viability
1. CC(=O)Nc1ccc(OC[C@](C)(O)C(=O)Nc2ccc([N+](=O)[O-])c(C(F)(F)F)c2)cc1
2. OC1=C(O)C2=C(\C=C/C(=O)O2)C=C1
3. O=NN(CCCl)C(=O)NCCCl

result:
1. 77%
2. 113%
3. 100%

// provenance: the supplement of paper PMC11451515
